test: Paclitaxel pharmacokinetics in rats after single oral dose with Compound A; settings: rat, in vivo, 5 mg/kg
VALUE TYPE: Tmax

CC(=O)O[C@H]1C(=O)[C@@]2(C)[C@H]([C@H](OC(=O)c3ccccc3)[C@]3(O)C[C@H](OC(=O)[C@H](O)[C@@H](NC(=O)c4ccccc4)c4ccccc4)C(C)=C1C3(C)C)[C@]1(OC(C)=O)CO[C@@H]1C[C@@H]2O; 36 min

====

experiment: Paclitaxel pharmacokinetics in rats after single oral dose with Compound A; settings: rat, in vivo, 10 mg/kg
VALUE TYPE: Tmax (min)

CC(=O)O[C@H]1C(=O)[C@@]2(C)[C@H]([C@H](OC(=O)c3ccccc3)[C@]3(O)C[C@H](OC(=O)[C@H](O)[C@@H](NC(=O)c4ccccc4)c4ccccc4)C(C)=C1C3(C)C)[C@]1(OC(C)=O)CO[C@@H]1C[C@@H]2O [Paclitaxel]; 42

====

experiment: clinical; details: human, in vivo, oral, Cmax, range across dose levels, Day 2
VALUE TYPE: Cmax

CC(=O)O[C@H]1C(=O)[C@@]2(C)[C@H]([C@H](OC(=O)c3ccccc3)[C@]3(O)C[C@H](OC(=O)[C@H](O)[C@@H](NC(=O)c4ccccc4)c4ccccc4)C(C)=C1C3(C)C)[C@]1(OC(C)=O)CO[C@@H]1C[C@@H]2O; 159 to 315 ng/mL

====

assay: Paclitaxel pharmacokinetics in rats after single oral dose with Compound A; details: rat, in vivo, 50 mg/kg
VALUE TYPE: Cmax (ng/mL)

CC(=O)O[C@H]1C(=O)[C@@]2(C)[C@H]([C@H](OC(=O)c3ccccc3)[C@]3(O)C[C@H](OC(=O)[C@H](O)[C@@H](NC(=O)c4ccccc4)c4ccccc4)C(C)=C1C3(C)C)[C@]1(OC(C)=O)CO[C@@H]1C[C@@H]2O [Paclitaxel]; 3070

====

assay: clinical; conditions: human, in vivo, po, 150 mg/m2
VALUE TYPE: Cmax (ng/mL)

CC(=O)O[C@H]1C(=O)[C@@]2(C)[C@H]([C@H](OC(=O)c3ccccc3)[C@]3(O)C[C@H](OC(=O)[C@H](O)[C@@H](NC(=O)c4ccccc4)c4ccccc4)C(C)=C1C3(C)C)[C@]1(OC(C)=O)CO[C@@H]1C[C@@H]2O; 251

====

assay: Paclitaxel pharmacokinetics in rats after single oral dose with Compound A; details: rat, in vivo, 50 mg/kg
VALUE TYPE: AUC(0-t) (ng·h/mL)

CC(=O)O[C@H]1C(=O)[C@@]2(C)[C@H]([C@H](OC(=O)c3ccccc3)[C@]3(O)C[C@H](OC(=O)[C@H](O)[C@@H](NC(=O)c4ccccc4)c4ccccc4)C(C)=C1C3(C)C)[C@]1(OC(C)=O)CO[C@@H]1C[C@@H]2O; 13100

====

test: clinical; settings: human, in vivo, po, 360 mg/m2
VALUE TYPE: CL renal

CC(=O)O[C@H]1C(=O)[C@@]2(C)[C@H]([C@H](OC(=O)c3ccccc3)[C@]3(O)C[C@H](OC(=O)[C@H](O)[C@@H](NC(=O)c4ccccc4)c4ccccc4)C(C)=C1C3(C)C)[C@]1(OC(C)=O)CO[C@@H]1C[C@@H]2O [Paclitaxel]; 122 mL/min

====

test: clinical; settings: human, in vivo, oral, AUC0-24, range across dose levels, Day 2
VALUE TYPE: AUC(0-t)

CC(=O)O[C@H]1C(=O)[C@@]2(C)[C@H]([C@H](OC(=O)c3ccccc3)[C@]3(O)C[C@H](OC(=O)[C@H](O)[C@@H](NC(=O)c4ccccc4)c4ccccc4)C(C)=C1C3(C)C)[C@]1(OC(C)=O)CO[C@@H]1C[C@@H]2O; 735 to 1080 ng·h/mL

====

experiment: clinical; conditions: human, in vivo, po, 240 mg/m2
VALUE TYPE: Cmax (ng/mL)

CC(=O)O[C@H]1C(=O)[C@@]2(C)[C@H]([C@H](OC(=O)c3ccccc3)[C@]3(O)C[C@H](OC(=O)[C@H](O)[C@@H](NC(=O)c4ccccc4)c4ccccc4)C(C)=C1C3(C)C)[C@]1(OC(C)=O)CO[C@@H]1C[C@@H]2O [Paclitaxel]; 510

====

assay: clinical; details: human, in vivo, oral, AUC0-24, range across dose levels, Day 1
VALUE TYPE: AUC(0-t)

CC(=O)O[C@H]1C(=O)[C@@]2(C)[C@H]([C@H](OC(=O)c3ccccc3)[C@]3(O)C[C@H](OC(=O)[C@H](O)[C@@H](NC(=O)c4ccccc4)c4ccccc4)C(C)=C1C3(C)C)[C@]1(OC(C)=O)CO[C@@H]1C[C@@H]2O [Paclitaxel]; 611 to 894 ng·h/mL

====

test: clinical; settings: human, in vivo, po, 60 mg/m2
VALUE TYPE: MRT inf (h)

CC(=O)O[C@H]1C(=O)[C@@]2(C)[C@H]([C@H](OC(=O)c3ccccc3)[C@]3(O)C[C@H](OC(=O)[C@H](O)[C@@H](NC(=O)c4ccccc4)c4ccccc4)C(C)=C1C3(C)C)[C@]1(OC(C)=O)CO[C@@H]1C[C@@H]2O; 28.6

====

test: clinical; conditions: human, in vivo, po, 180 mg/m2
VALUE TYPE: half-life (h)

CC(=O)O[C@H]1C(=O)[C@@]2(C)[C@H]([C@H](OC(=O)c3ccccc3)[C@]3(O)C[C@H](OC(=O)[C@H](O)[C@@H](NC(=O)c4ccccc4)c4ccccc4)C(C)=C1C3(C)C)[C@]1(OC(C)=O)CO[C@@H]1C[C@@H]2O; 24.4

====

test: clinical; conditions: human, in vivo, po, 120 mg/m2
VALUE TYPE: AUC(0-t) (µg·h/mL)

CC(=O)O[C@H]1C(=O)[C@@]2(C)[C@H]([C@H](OC(=O)c3ccccc3)[C@]3(O)C[C@H](OC(=O)[C@H](O)[C@@H](NC(=O)c4ccccc4)c4ccccc4)C(C)=C1C3(C)C)[C@]1(OC(C)=O)CO[C@@H]1C[C@@H]2O; 1.61

====

test: clinical; conditions: human, in vivo, po, 420 mg/m2
VALUE TYPE: half-life (h)

CC(=O)O[C@H]1C(=O)[C@@]2(C)[C@H]([C@H](OC(=O)c3ccccc3)[C@]3(O)C[C@H](OC(=O)[C@H](O)[C@@H](NC(=O)c4ccccc4)c4ccccc4)C(C)=C1C3(C)C)[C@]1(OC(C)=O)CO[C@@H]1C[C@@H]2O; 19.9

====

assay: clinical; conditions: human, in vivo, po, 60 mg/m2
VALUE TYPE: Vd/F

CC(=O)O[C@H]1C(=O)[C@@]2(C)[C@H]([C@H](OC(=O)c3ccccc3)[C@]3(O)C[C@H](OC(=O)[C@H](O)[C@@H](NC(=O)c4ccccc4)c4ccccc4)C(C)=C1C3(C)C)[C@]1(OC(C)=O)CO[C@@H]1C[C@@H]2O; 9130 L

====

test: Paclitaxel pharmacokinetics in dogs after single oral dose with Compound A; conditions: dog, in vivo, 2 mg/kg
VALUE TYPE: Tmax (min)

CC(=O)O[C@H]1C(=O)[C@@]2(C)[C@H]([C@H](OC(=O)c3ccccc3)[C@]3(O)C[C@H](OC(=O)[C@H](O)[C@@H](NC(=O)c4ccccc4)c4ccccc4)C(C)=C1C3(C)C)[C@]1(OC(C)=O)CO[C@@H]1C[C@@H]2O [Paclitaxel]; 30

====

assay: Paclitaxel pharmacokinetics in dogs after single oral dose with Compound A; conditions: dog, in vivo, 2 mg/kg
VALUE TYPE: AUC(0-t) (ng·h/mL)

CC(=O)O[C@H]1C(=O)[C@@]2(C)[C@H]([C@H](OC(=O)c3ccccc3)[C@]3(O)C[C@H](OC(=O)[C@H](O)[C@@H](NC(=O)c4ccccc4)c4ccccc4)C(C)=C1C3(C)C)[C@]1(OC(C)=O)CO[C@@H]1C[C@@H]2O [Paclitaxel]; 413

====

experiment: in vivo; details: dog, po, 6 mg/kg, Vd/F, dogs, Fed, paclitaxel 6 mg/kg with Compound A 3 mg/kg, single oral dose
VALUE TYPE: Vd/F (L)

CC(=O)O[C@H]1C(=O)[C@@]2(C)[C@H]([C@H](OC(=O)c3ccccc3)[C@]3(O)C[C@H](OC(=O)[C@H](O)[C@@H](NC(=O)c4ccccc4)c4ccccc4)C(C)=C1C3(C)C)[C@]1(OC(C)=O)CO[C@@H]1C[C@@H]2O; 88

====

test: clinical; details: human, in vivo, po, 150 mg/m2
VALUE TYPE: AUC(0-t) (ng·h/mL)

CC(=O)O[C@H]1C(=O)[C@@]2(C)[C@H]([C@H](OC(=O)c3ccccc3)[C@]3(O)C[C@H](OC(=O)[C@H](O)[C@@H](NC(=O)c4ccccc4)c4ccccc4)C(C)=C1C3(C)C)[C@]1(OC(C)=O)CO[C@@H]1C[C@@H]2O; 894

====

experiment: clinical; conditions: human, in vivo, po, 300 mg/m2
VALUE TYPE: Vd/F (L)

CC(=O)O[C@H]1C(=O)[C@@]2(C)[C@H]([C@H](OC(=O)c3ccccc3)[C@]3(O)C[C@H](OC(=O)[C@H](O)[C@@H](NC(=O)c4ccccc4)c4ccccc4)C(C)=C1C3(C)C)[C@]1(OC(C)=O)CO[C@@H]1C[C@@H]2O [Paclitaxel]; 4930
